# assayComment: gradient 5% acetonitrile 3 min, to 50% in 2 min, to 85% in 15 min, held 3 min, 100 µL/min
# measurementParameters: column: Zorbax Extend-C18 2.1 x 50 mm; eluents: water / acetonitrile, 0.1% formic acid
Range-based classes on measured RP-LC retention time: A (below 700 s), B (700 s to below 800 s), C (800 s or more)

These solved cases illustrate the format of a correct answer.
{"compound": "CC(C)CCNc1ccc(-c2nc(-c3ccc(F)cc3)no2)cn1", "assignedLabel": "C"}
{"compound": "O=C(CCc1nnn2c1CN(C(=O)c1ccc(F)cc1)CC2)NC1CC1", "assignedLabel": "A"}

For the next question, use this compound.
Inquiry: Textbook exercise: identify the category of the compound given here, CN(C)c1nccnc1OC1CCN(C(=O)c2ccn[nH]2)C1 (stereo unspecified) , according to its measured value.
Reply text: A

---

So I've got a bunch of molecules here, and I need their RP-LC retention time values.
# assayComment: gradient 5% acetonitrile 3 min, to 50% in 2 min, to 85% in 15 min, held 3 min, 100 µL/min
# measurementParameters: column: Zorbax Extend-C18 2.1 x 50 mm; eluents: water / acetonitrile, 0.1% formic acid
Numbers only, in s.

{"molecule": "C=CCN1CC[C@@]2(C)c3cc(O)ccc3CC1[C@@H]2C", "RP-LC retention time / s": 644}
{"molecule": "C=CCc1ccc(OCC(O)CN2C(C)CCCC2C)c(OC)c1 (stereo not given)", "RP-LC retention time / s": 603}
{"molecule": "Cc1ccc2nc(-c3ccc(N4CCOCC4)cc3)c(Nc3ccc4c(c3)OCCO4)n2c1", "RP-LC retention time / s": 692}

I would be grateful if you could provide RP-LC retention time for each of the following entries.
1. Cc1nc(-c2cnccn2)n(CC(=O)Nc2cccc(C(C)C)c2)c(=O)c1C
2. CCS(=O)(=O)c1nc2ccc(NS(=O)(=O)c3ccccc3Cl)cc2s1

Reply text:
855
858

I would be grateful if you could provide RP-LC retention time for each of the following entries.
1. CCOc1ccc(NC(=O)C2(C)Oc3cccnc3NC2=O)cc1 (stereo not given)
2. COCC(C)(O)CNC(=O)COc1ccccc1OC (stereo not given)
3. COc1ccc(-c2noc(C3CCCN3C(=O)NC3CCCC3)n2)cc1 (stereo not given)
4. CCc1ccc(CN2C(=O)c3c(C(=O)OC)ncn3CC2(C)C(=O)NCc2ccccc2)cc1 (stereo not given)
5. Cc1ccc(C(=O)COC(=O)c2ccc3nc(C)c(C)nc3c2)cc1
6. CC(C)CCNC(=O)c1cn2cc(Cl)ccc2n1

Reply text:
1: 740; 2: 608; 3: 881; 4: 801; 5: 965; 6: 825

I would be grateful if you could provide RP-LC retention time for each of the following entries.
1. CC(C)CC(C(=O)N1CCN(c2ccccn2)CC1)N1Cc2ccccc2C1=O (stereo not given)
2. CC(C)C(=O)N1[C@H]2CC[C@@H]1c1cnc(-c3ccc(F)cc3)nc1C2
3. COc1cc(Br)cc2c1OC1(C)CC2NC(=O)N1c1cccc(C(=O)O)c1 (stereo not given)
4. CCCNC(=O)C1CCCN(c2cnc3nc(CC)c(CC)nc3c2)C1 (stereo not given)

Reply text:
[650, 871, 672, 755]

I would be grateful if you could provide RP-LC retention time for each of the following entries.
1. Cc1ccc(NC(=O)C2CCN(S(=O)(=O)c3ccc4c(c3)sc(=O)n4C(C)C)CC2)cc1C
2. CCn1c(CN(C)C(=O)Nc2ccc3c(c2)OCCO3)nc2cc(C(=O)N(C)C)ccc21
3. Cc1ccc2c(Nc3ccc4c(c3)OCO4)c(C(=O)N3CCOCC3)cnc2n1
4. Cc1cc(=O)n(CC(=O)Nc2cc(F)ccc2C)c(N2CCOCC2)n1
5. Cn1nccc1C(=O)N1CCN(S(=O)(=O)c2ccc3c(c2)sc(=O)n3C)CC1

Reply text:
[953, 611, 765, 689, 699]

---

# assayComment: gradient 5% acetonitrile 3 min, to 50% in 2 min, to 85% in 15 min, held 3 min, 100 µL/min
# measurementParameters: column: Zorbax Extend-C18 2.1 x 50 mm; eluents: water / acetonitrile, 0.1% formic acid
So I've got a bunch of compounds here, and I need their RP-LC retention time values.
One number for each entry, in s.

Take a look at these entries with their results.
{"compound": "Cc1nn(-c2ccccc2)c(C)c1S(=O)(=O)Nc1ccc(S(N)(=O)=O)cc1", "property": "RP-LC retention time", "recordedMeasurement": 731}
{"compound": "Cn1ccc2cc(CCC(=O)N3CCCC3)ccc21", "property": "RP-LC retention time", "recordedMeasurement": 789}
{"compound": "Cc1cccc(-n2c(=O)c3c(cc(C)n3C)n(CC(=O)Nc3cccc(C(C)C)c3)c2=O)c1", "property": "RP-LC retention time", "recordedMeasurement": 626}
{"compound": "Cc1ccc(-n2nc3c(N4CCCC(C(=O)NCCC5=CCCCC5)C4)nnc(C)c3c2C)cc1 (stereo not given)", "property": "RP-LC retention time", "recordedMeasurement": 865}

Next:
Inquiry: Find the measured RP-LC retention time of "COc1cc(NC(=O)Cn2nc3n(c2=O)CCCCC3)cc(OC)c1" and report it.
Reply text: 704

---

# assayComment: gradient 5% acetonitrile 3 min, to 50% in 2 min, to 85% in 15 min, held 3 min, 100 µL/min
# measurementParameters: column: Zorbax Extend-C18 2.1 x 50 mm; eluents: water / acetonitrile, 0.1% formic acid
So I've got a bunch of compounds here, and I need their RP-LC retention time values.
One number for each entry, in s.

{"compound": "CCC(=O)Nc1ccc(C2(C(=O)N3CCOCC3)CCCCC2)cc1", "recordedMeasurement": 721}
{"compound": "CCC(C)NC(=O)Cn1c(=O)cc(-c2nc(C3CC3)no2)c2ccccc21 (stereo not given)", "recordedMeasurement": 863}
{"compound": "O=C(Cn1c(C(=O)c2cccc(F)c2)nc2ccccc21)NCC1CCCO1 (stereo not given)", "recordedMeasurement": 805}
{"compound": "Cn1c(=O)c2nc(S(=O)(=O)CCC(=O)Nc3cc(F)ccc3F)n(C)c2n(C)c1=O", "recordedMeasurement": 730}
{"compound": "O=C(NC1CCCCC1)C1CCc2nc(N3CCCCC3)ncc2C1 (stereo not given)", "recordedMeasurement": 723}

I would be grateful if you could provide RP-LC retention time for each of the following entries.
1. Cc1cccc(OCC(=O)c2ccc3c(c2)N(C(C)C(=O)N2CCCC2)C(=O)CO3)c1C (stereo not given)
2. CCc1c(C)nc2ncnn2c1N1CCOCC1
3. O=C(c1nnn2c1COC(c1ccccc1)C2)N1CCN(C(=O)C2(c3ccccc3)CC2)CC1 (stereo not given)

Reply text:
922
653
850

I would be grateful if you could provide RP-LC retention time for each of the following entries.
1. c1cc2c(cc1-c1nnc(C3CCCC3)o1)OCO2
2. O=C(C1=CN(c2ccc(Cl)cc2)c2cc(F)ccc2S1(=O)=O)N1CCOCC1
3. O=S(=O)(c1ccc2c(c1)-c1oncc1CO2)N1CCN(c2ccc(F)cc2)CC1
4. CC1CCN(C(=O)CN2C(=O)C3CCCCN3c3ccc(S(=O)(=O)N4CCCC4)cc32)CC1 (stereo not given)
5. Cc1nc2cc(NC(=O)c3csc(Nc4ncccn4)n3)ccc2s1
6. COCc1nncn1C1CN(C(=O)Cc2ccc(Cl)cc2)C1
7. CCOc1ccc(NC(=O)Cn2nc(N3CCC(C)CC3)c3ccccc3c2=O)cc1

Reply text:
1. 944
2. 830
3. 1040
4. 937
5. 706
6. 642
7. 1130

I would be grateful if you could provide RP-LC retention time for each of the following entries.
1. CCOc1ccc(C(=O)Nc2nc3c(s2)CCc2ccccc2-3)cc1
2. O=C(Nc1cc(-c2ccncc2)no1)c1ccccc1
3. CCn1cc(-c2nc(C(=O)Nc3ccccc3Cl)cs2)c2cccnc21
4. CCCN1C(=O)COc2ccc(-c3noc(-c4cc(OC)c(OC)c(OC)c4)n3)cc21
5. COC(=O)c1c(NCCc2cccs2)c2cccc(Cl)c2[nH]c1=O

Reply text:
1. 1200
2. 663
3. 1330
4. 1140
5. 823

---

# assayComment: gradient 5% acetonitrile 3 min, to 50% in 2 min, to 85% in 15 min, held 3 min, 100 µL/min
# measurementParameters: column: Zorbax Extend-C18 2.1 x 50 mm; eluents: water / acetonitrile, 0.1% formic acid
property: RP-LC retention time (s)
Give bare numbers, in s.

Take a look at these entries with their results.
{"compound": "O=C(Nc1nc(-c2cccc([N+](=O)[O-])c2)cs1)c1cccc(Br)c1", "unitAbbreviation": "s", "recordedMeasurement": 1170}
{"compound": "COc1cc(OC)c(NC(=O)CN2C(=O)C(C)(C)c3ccccc32)cc1Cl", "unitAbbreviation": "s", "recordedMeasurement": 954}
{"compound": "COc1ccc2nc(CN3CCN(S(=O)(=O)N(C)C)CC3)[nH]c2c1", "unitAbbreviation": "s", "recordedMeasurement": 556}
{"compound": "O=C(c1ccsc1)N1CCCC(c2nc(-c3ccccc3)n[nH]2)C1 (centres undefined)", "unitAbbreviation": "s", "recordedMeasurement": 716}
{"compound": "Cc1cc(NC(=O)Cn2cccc2-c2nc(-c3ccc4c(c3)OCO4)no2)n[nH]1", "unitAbbreviation": "s", "recordedMeasurement": 786}

I would be grateful if you could provide RP-LC retention time for each of the following entries.
1. CS(=O)(=O)N1CCCc2cc(C(=O)NCCC3=CCCCC3)ccc21
2. Cc1ccc(Nc2nc(-c3ccc(C)cc3)c(CC(=O)O)s2)cc1
3. CCn1nccc1-c1cccc(-c2noc(C3CC(=O)N(c4ccc(C)cc4)C3)n2)c1 (centres undefined)
4. O=C(c1ccc2nnc(-c3ccc(Cl)cc3)n2c1)N1CCN(c2ccccn2)CC1

Reply text:
[935, 946, 1010, 650]

I would be grateful if you could provide RP-LC retention time for each of the following entries.
1. COc1ccccc1C(=O)N1C[C@H](c2nc(-c3ccccc3)no2)[C@@H](C)C1
2. CN(CC1(C)CCOCC1)S(=O)(=O)c1ccc(F)c(F)c1
3. CCOC(=O)c1noc2nc(C)nc(NCC3CCN(CCc4ccc(F)cc4)CC3)c12

Reply text:
1: 820; 2: 910; 3: 741

I would be grateful if you could provide RP-LC retention time for each of the following entries.
1. CC1=C(c2ccccc2)S(=O)(=O)N=C1N1CCCN(C(=O)c2cccnc2)CC1
2. CCOCC(=O)N1C[C@@H]2CCCN3CCC[C@@H]([C@H]23)[C@H]1CCCC(=O)N1CCOCC1
3. CCOc1ccc(CC(=O)NC2(c3nc(CC)no3)CCCCC2)cc1
4. NC(=O)C1CCN(C2=NC(=O)/C(=C\c3ccc(-c4ccc(F)cc4)o3)S2)CC1
5. O=C(NCCN1CCCC1)C1CCCN(c2ccc(Sc3ccc(Br)cc3)nn2)C1 (centres undefined)
6. Cc1ccc2c(Sc3ccc(Cl)cc3)c(C(=O)N3CCN(c4ccccn4)CC3)[nH]c2c1
7. O=C(Cn1c(=O)cc(-c2nc(C3CC3)no2)c2ccccc21)Nc1ccc2c(c1)OCCO2

Reply text:
1. 664
2. 563
3. 940
4. 671
5. 663
6. 894
7. 906
